All values here come from ChEMBL document CHEMBL3392955.

- MEASUREMENT NOTES: Stability of the compound in DMSO at room temperature after 30 days by LC/MS/MS analysis
- Type: physicochemical
- CONDITION DESCRIPTION: read-out: Stability
REPORTED PROPERTY: remaining at 720 h (%)

SMILES TEXT	REPORTED PROPERTY	DATA VALUE
CCCCCCCCCCCCCCCCNC(=O)CN(CC(N)=O)C(=O)CCCCCNC(=O)[C@H](Cc1ccccc1)NC(=O)[C@H](CCCNC(=N)N)NC(=O)[C@H](CS/C(=C\P(=O)(OCC)OCC)P(=O)(OCC)OCC)NC(=O)[C@H](CCCNC(=N)N)NC(=O)C[C@@H]1CCCN1C(=O)[C@@H](NC(=O)[C@H](Cc1cnc[nH]1)NC(=O)[C@@H](NC(=O)CNC(=O)CO)[C@@H](C)O)C(c1ccccc1)c1ccccc1	remaining at 720 h	99.5
